Values from PubChem BioAssay (Tox21)

test: A CellTox Green Cytotoxicity Assay to monitor cytotoxicity in HepG2 cells - 40 hour (AID 1224879); details: CellTox Green fluorescence; series mostly up to 76.8 µM; further: nearly all actives have a fitted effect of over 40% in size
Records with an inconclusive call do not appear. Activity calls are given as the source filed them. The call rests on the fitted dose curve; in most records, active means well fitted activation curve with a large enough effect in the repeat runs; inconclusive means weak or mixed curves; inactive means flat fitted curve, though single readings scatter.
Outcomes: active, inactive

- Compound: "COc1nccnc1CC(C)C"
  Class Name: "inactive"
- Compound: "CCN(CC)CCNc1ccc(CO)c2sc3ccccc3c(=O)c12"
  Class Name: "active"
- Compound: "O=Nc1ccc(NO)cc1"
  Class Name: "inactive"
- Compound: "Cc1cc(C)c(C=O)c(C)c1"
  Class Name: "inactive"
- Compound: "CCCCCCCC/C=C\\CCCCCCCC(=O)NCc1ccc(O)c(OC)c1"
  Class Name: "inactive"
- Compound: "Cc1c(-c2ccc(O)cc2)n(Cc2ccc(OCCN3CCCCCC3)cc2)c2ccc(O)cc12"
  Class Name: "active"
- Compound: "OCCCS"
  Class Name: "inactive"
- Compound: "Cc1cc2c(C(C)C)c(O)c(O)c(C=O)c2c(O)c1-c1c(C)cc2c(C(C)C)c(O)c(O)c(C=O)c2c1O"
  Class Name: "active"
- Compound: "CCNc1nc(NC(C)CC)nc(OC)n1 (stereo not drawn)"
  Class Name: "inactive"
- Compound: "CC1CCCCN1CCCOC(=O)c1ccc(OC2CCCCC2)cc1 (stereo not drawn)"
  Class Name: "active"
- Compound: "COC(=O)NCCC[Si](OC)(OC)OC"
  Class Name: "inactive"
- Compound: "CC(=O)O[C@@H]1C[C@@H]2CC[C@@]1(C)C2(C)C"
  Class Name: "inactive"
- Compound: "Clc1cc(Cl)c(-c2c(Cl)c(Cl)cc(Cl)c2Cl)cc1Cl"
  Class Name: "inactive"

* * *

target: Cytochrome P450 3A4 (Homo sapiens) (UniProt P08684); assay: Cytochrome P450 Family 3 Subfamily A Member 4 (CYP3A4) small molecule antagonists: luciferase reporter qHTS assay (AID 1671201); conditions: P450-Glo CYP3A4 enzyme, luciferin luminescence, 1 h; series mostly up to 115 µM; further: nearly all actives have a fitted effect of over 50% in size
Sequence (P08684 whole entry, looked up): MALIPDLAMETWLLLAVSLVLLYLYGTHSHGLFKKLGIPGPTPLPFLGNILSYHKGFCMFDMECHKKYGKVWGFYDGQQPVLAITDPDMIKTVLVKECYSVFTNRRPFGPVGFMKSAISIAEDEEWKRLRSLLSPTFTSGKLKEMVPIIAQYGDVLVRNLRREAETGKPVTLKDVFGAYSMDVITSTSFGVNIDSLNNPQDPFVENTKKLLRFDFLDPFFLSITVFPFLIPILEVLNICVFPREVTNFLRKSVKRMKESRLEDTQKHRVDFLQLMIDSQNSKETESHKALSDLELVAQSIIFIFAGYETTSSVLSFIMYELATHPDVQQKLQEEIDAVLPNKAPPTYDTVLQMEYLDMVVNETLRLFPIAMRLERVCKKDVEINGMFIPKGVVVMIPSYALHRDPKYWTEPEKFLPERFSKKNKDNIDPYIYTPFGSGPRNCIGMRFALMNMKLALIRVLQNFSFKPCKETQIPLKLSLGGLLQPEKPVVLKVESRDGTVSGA
Inconclusive results are not listed. Calls of active or inactive are those of the source. Calls follow the shape of the dose curve; as a rule, active = well fitted inhibition curve with a large enough effect in the repeat runs; inconclusive = weak or mixed curves; inactive = no such curve, though single readings can be large or run the other way.
Outcomes: active, inactive

- Compound: "CCCCCCCCCCCCCCCC"
  Class Name: "inactive"
- Compound: "CC(=O)Oc1ccc(C2(c3ccc(OC(C)=O)cc3)Oc3ccccc3NC2=O)cc1"
  Class Name: "inactive"
- Compound: "CCCCCCC(C)Nc1ccc(Nc2ccccc2)cc1 (centres undefined)"
  Class Name: "active"
- Compound: "O=C1OC(=O)c2cccc3cccc1c23"
  Class Name: "inactive"
- Compound: "C=CC(=C)CC/C=C(\\C)CCC=C(C)C"
  Class Name: "active"
- Compound: "CCOC(=O)CC(C)O (centres undefined)"
  Class Name: "inactive"
- Compound: "C[Si](C)O[Si](C)C"
  Class Name: "inactive"
- Compound: "Nc1ncnc2c1ncn2[C@@H]1O[C@H](COP(=O)(O)O)[C@@H](O)[C@H]1O"
  Class Name: "inactive"
- Compound: "Brc1ccccn1"
  Class Name: "inactive"
- Compound: "Oc1c(Br)cc(Br)c2cccnc12"
  Class Name: "inactive"
- Compound: "Cc1cccc(C)c1NC(=O)CN1CCN(CCCC(c2ccc(F)cc2)c2ccc(F)cc2)CC1"
  Class Name: "inactive"
- Compound: "O=C(NO)c1ccccc1"
  Class Name: "inactive"
- Compound: "CCOC(=O)CN"
  Class Name: "inactive"
- Compound: "CCCC(CC)CCCCCCCN (centres undefined)"
  Class Name: "active"

* * *

assay: qHTS assay to identify small molecule antagonists of the estrogen related receptor signaling pathway with the pleiotropic PPARgamma coactivator (PGC) cell viability counter screen (AID 1224822; further: potency means the concentration at half of the fitted maximal effect;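 further: viability read after 17.5 h compound exposure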); settings: ERR/PGC reporter cell line viability counter screen; series mostly up to 46.1 µM
Results filed as inconclusive are left out. Active and inactive are the calls of the source. The call rests on the fitted dose curve; in most records, active means well fitted cell-killing curve with a large enough effect in the repeat runs; inconclusive means weak or mixed curves, or effect the other way; inactive means flat fitted curve, though single readings scatter.
Readout Name: Potency

- Sample Smiles: "Cc1cn[nH]c1"
  Readout Name: "Potency"
  Val: "inactive"
- Sample Smiles: "O=C(NO)c1ccccc1"
  Readout Name: "Potency"
  Val: "inactive"
- Sample Smiles: "Cc1ccc(N)cc1O"
  Readout Name: "Potency"
  Val: "inactive"
- Sample Smiles: "S=P(N1CC1)(N1CC1)N1CC1"
  Readout Name: "Potency"
  Val: "inactive"
- Sample Smiles: "CC(C)OC(=O)c1cc(C(=O)OC(C)C)cc([N+](=O)[O-])c1"
  Readout Name: "Potency"
  Val: "inactive"
- Sample Smiles: "CN(C)c1ccc(N=NS(=O)(=O)O)cc1"
  Readout Name: "Potency"
  Val: "inactive"
- Sample Smiles: "CN(C)CCCN1c2ccccc2CCc2ccccc21"
  Readout Name: "Potency"
  Val: "inactive"
- Sample Smiles: "O=C1NCN(c2ccccc2)C12CCN(CCCC(c1ccc(F)cc1)c1ccc(F)cc1)CC2"
  Readout Name: "Potency"
  Val: "22.8 µM (active)"
- Sample Smiles: "CCN(CC)CCCN(c1ccccc1)C1Cc2ccccc2C1"
  Readout Name: "Potency"
  Val: "inactive"
- Sample Smiles: "CC1=C(/C=C/C(C)=C/C=C/C(C)=C/C(=O)Nc2ccc(O)cc2)C(C)(C)CCC1"
  Readout Name: "Potency"
  Val: "13.9 µM (active)"

* * *

test: qHTS assay to identify small molecule antagonists of the progesterone receptor (PR) signaling pathway - cell viability counter screen (AID 1346798); settings: PR-UAS-bla HEK293T viability, CellTiter-Glo luminescence, 16 h; series mostly up to 92.4 µM; further: nearly all actives have a fitted effect of over 50% in size
Results filed as inconclusive are left out. Active and inactive are the calls of the source. Calls follow the shape of the dose curve; as a rule, active = well fitted cell-killing curve with a large enough effect in the repeat runs; inconclusive = weak or mixed curves, or effect the other way; inactive = no such curve, though single readings can be large or run the other way.
Outcomes: 1 = active, 0 = inactive

- Molecule: "Brc1ccccn1"
  Class Name: 0
- Molecule: "O=C(O)CCn1c2c(c3ccccc31)C[C@H](NS(=O)(=O)c1ccc(F)cc1)CC2"
  Class Name: 0
- Molecule: "CN1[C@@H]2CC[C@H]1CC(OC(=O)C(CO)c1ccccc1)C2 (some centres not stated)"
  Class Name: 0
- Molecule: "O=C(Oc1ccccc1)c1cccc(C(=O)Oc2ccccc2)c1"
  Class Name: 1
- Molecule: "CCCCOc1ccc(C(=O)CCN2CCCCC2)cc1"
  Class Name: 0
- Molecule: "CCCCCCCC(=O)OCC"
  Class Name: 0
- Molecule: "C[Si](C)(C)Cl"
  Class Name: 0
- Molecule: "COc1ccc2sc(C(=O)Nc3nnn[nH]3)c(OC(C)C)c2c1"
  Class Name: 0
- Molecule: "CC1(C)C(=O)N(Br)C(=O)N1Br"
  Class Name: 0
- Molecule: "CCOC(=O)CN"
  Class Name: 0
- Molecule: "Cc1cnccn1"
  Class Name: 0
- Molecule: "CCCCCCC(C)OC(=O)COc1nc(F)c(Cl)c(N)c1Cl (configuration not stated)"
  Class Name: 0

* * *

Test: Caspase-3/7 induction in HepG2 cells by small molecules, qHTS cell viability counter screen (AID 1346981); further: nearly all actives have a fitted effect of over 30% in size
Settings: CellTiter-Fluor fluorescence, 17 h; series mostly up to 92.4 µM
Excerpt: U.S. Tox21 Program National Center for Advancing Translational Sciences [NCATS] NIH Chemical Genomics Center [NCGC] U.S. Environmental Protection Agency [EPA] National Institutes of Environmental Health Sciences [NIEHS] National Toxicology Program [NTP] U.S. Food and Drug Administration [FDA] Tox21 Assay Overview: Apoptosis is a process of programmed cell death and plays a central role in the development of multicellular organisms. […]
Inconclusive results are not listed. Calls of active or inactive are those of the source. Calls follow the shape of the dose curve; as a rule, active = well fitted cell-killing curve with a large enough effect in the repeat runs; inconclusive = weak or mixed curves, or effect the other way; inactive = flat fitted curve, though single readings scatter.
Outcomes: active, inactive

- Compound: "C=CC/C=C/C/C=C/C/C=C/C"
  Class Name: "inactive"
- Compound: "c1cc2c3c(c1)ccc1cccc(c13)C2"
  Class Name: "inactive"
- Compound: "C[Si](C)(C)Cl"
  Class Name: "inactive"
- Compound: "CCCCCCCOC(=O)c1ccc(O)cc1"
  Class Name: "inactive"
- Compound: "Brc1ccccc1-c1ccccc1"
  Class Name: "inactive"
- Compound: "CC(C)CCOCCC(C)C"
  Class Name: "inactive"
- Compound: "c1cc[nH]c1"
  Class Name: "inactive"
- Compound: "CC(C)=C1CC[C@@H](C)CC1=O"
  Class Name: "inactive"
- Compound: "COC(=O)NCCC[Si](OC)(OC)OC"
  Class Name: "inactive"
- Compound: "COc1cccc(O)c1"
  Class Name: "inactive"
- Compound: "CCc1c(Br)c(Br)c(Br)c(Br)c1Br"
  Class Name: "inactive"
- Compound: "COc1ccccc1C=O"
  Class Name: "inactive"
- Compound: "CN(C)c1ccc(N=Nc2ccccc2C(=O)O)cc1"
  Class Name: "active"
- Compound: "O=C(O)CCCCCCC(=O)O"
  Class Name: "inactive"
- Compound: "CC(=O)Oc1ccc(C2(c3ccc(OC(C)=O)cc3)Oc3ccccc3NC2=O)cc1"
  Class Name: "inactive"
- Compound: "CCCCCCCCCCCCCc1ccccc1"
  Class Name: "inactive"
- Compound: "Cc1cnccn1"
  Class Name: "inactive"
- Compound: "COC(=O)CC(C)CCC=C(C)C (centres undefined)"
  Class Name: "inactive"
- Compound: "CO[C@H]1C=CO[C@@]2(C)Oc3c(C)c(O)c4c(O)c(cc(O)c4c3C2=O)NC(=O)/C(C)=C\\C=C/[C@H](C)[C@H](O)[C@@H](C)[C@@H](O)[C@@H](C)[C@H](OC(C)=O)[C@@H]1C"
  Class Name: "active"
- Compound: "CCc1ccc(C)nc1"
  Class Name: "inactive"
- Compound: "Cc1cccc(C)c1NC(=O)CN1CCN(CCCC(c2ccc(F)cc2)c2ccc(F)cc2)CC1"
  Class Name: "active"
- Compound: "CC1=CP(=O)(c2ccccc2)CC1 (centres undefined)"
  Class Name: "inactive"
- Compound: "C1CC(COCC2CO2)CCC1COCC1CO1 (centres undefined)"
  Class Name: "inactive"
- Compound: "CC=O"
  Class Name: "inactive"
- Compound: "C/C=C/CO"
  Class Name: "inactive"
- Compound: "S=P(N1CC1)(N1CC1)N1CC1"
  Class Name: "inactive"
- Compound: "CS(C)(=O)=O"
  Class Name: "inactive"
- Compound: "COC(=O)[C@]1(C)CCC[C@@]2(C)[C@H]1CC=C1C=C(C(C)C)CC[C@@H]12"
  Class Name: "inactive"
- Compound: "CCCCCCCC(OC)OC"
  Class Name: "inactive"
- Compound: "COc1cc(C(=O)NS(=O)(=O)c2ccccc2C)ccc1Cc1cn(C)c2ccc(NC(=O)OC3CCCC3)cc12"
  Class Name: "inactive"
- Compound: "CCOC(/C=C(\\C)CCC=C(C)C)OCC"
  Class Name: "inactive"
- Compound: "CCC(C)c1cc([N+](=O)[O-])cc([N+](=O)[O-])c1OC(=O)OC(C)C (centres undefined)"
  Class Name: "active"
- Compound: "CC(C)=CCCC(C)CCOC(=O)C(C)C (centres undefined)"
  Class Name: "inactive"
- Compound: "CC(=O)OC1CCCCC1"
  Class Name: "inactive"
- Compound: "CCN=C1C=CC(=C(c2ccc(N(CC)CC)cc2)c2ccc(N(CC)CC)cc2)c2ccccc21"
  Class Name: "active"
- Compound: "Cc1cncc(C)c1"
  Class Name: "inactive"
- Compound: "Cc1cccc(N(C)C)c1"
  Class Name: "inactive"
- Compound: "Nc1ncnc2c1ncn2[C@@H]1O[C@H](COP(=O)(O)O)[C@@H](O)[C@H]1O"
  Class Name: "inactive"
- Compound: "CC1(C)COCN1"
  Class Name: "inactive"
- Compound: "CC(C)C(=O)OCc1ccccc1"
  Class Name: "inactive"
- Compound: "O=C1OC(=O)c2cccc3cccc1c23"
  Class Name: "inactive"
- Compound: "C=C(C)C(=O)OCCC[Si](Cl)(Cl)Cl"
  Class Name: "inactive"
- Compound: "CC(=O)c1ccccc1N"
  Class Name: "inactive"
- Compound: "Oc1cc2ccccc2cc1O"
  Class Name: "inactive"
- Compound: "C/C=C/C(=O)C1=C(C)CCCC1(C)C"
  Class Name: "inactive"
- Compound: "NC(=O)c1ccccc1N"
  Class Name: "inactive"
- Compound: "Cc1cn[nH]c1"
  Class Name: "inactive"
- Compound: "CCCCCCCCCCCCCCNCCO"
  Class Name: "inactive"
- Compound: "Clc1cccnc1"
  Class Name: "inactive"
- Compound: "O=C1NC2CCCCN2C12CCN(CCCN1c3ccccc3CCc3ccc(Cl)cc31)CC2 (centres undefined)"
  Class Name: "active"
- Compound: "CCCN(CCc1cccs1)[C@H]1CCc2c(O)cccc2C1"
  Class Name: "inactive"
- Compound: "C[Si](C)O[Si](C)C"
  Class Name: "inactive"
- Compound: "CCCCCCCCCCCCCCCC"
  Class Name: "inactive"
- Compound: "Cn1cccc1"
  Class Name: "inactive"
- Compound: "OCCN1CN(CCO)CN(CCO)C1"
  Class Name: "inactive"
- Compound: "O=C(O)CCn1c2c(c3ccccc31)C[C@H](NS(=O)(=O)c1ccc(F)cc1)CC2"
  Class Name: "inactive"
- Compound: "Brc1ccccn1"
  Class Name: "inactive"
- Compound: "CC(C)c1ccccc1N"
  Class Name: "inactive"
- Compound: "CCN(CC)CCSC(=O)C(c1ccccc1)c1ccccc1"
  Class Name: "inactive"
